This section presents molecules with their documented EC50 values.
Molecular target: human Kv3.1 channels (hKv3.1) (Homo sapiens, UniProt P48547)
Sequence (P48547 1-501 limits assumed): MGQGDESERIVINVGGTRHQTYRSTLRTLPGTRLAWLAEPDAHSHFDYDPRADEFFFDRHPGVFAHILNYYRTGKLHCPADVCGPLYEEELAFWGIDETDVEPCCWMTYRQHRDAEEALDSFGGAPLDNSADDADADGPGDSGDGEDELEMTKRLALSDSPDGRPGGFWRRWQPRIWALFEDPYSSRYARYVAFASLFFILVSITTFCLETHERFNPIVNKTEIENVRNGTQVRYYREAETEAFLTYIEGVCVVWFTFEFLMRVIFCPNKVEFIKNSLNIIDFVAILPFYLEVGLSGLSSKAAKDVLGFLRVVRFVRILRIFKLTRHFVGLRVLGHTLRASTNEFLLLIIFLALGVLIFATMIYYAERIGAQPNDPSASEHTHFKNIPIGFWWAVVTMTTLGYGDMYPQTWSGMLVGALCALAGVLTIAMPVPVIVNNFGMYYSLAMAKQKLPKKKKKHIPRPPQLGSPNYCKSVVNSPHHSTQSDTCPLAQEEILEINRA
Assay: Measurement of Kv3 channel modulation: Kv3.1 assay (IonWorks Quattro whole-cell electrophysiology)
Type: cell-based
Details: Table 5, Example compounds; read-out: Kv3.1 pEC50 (converted)
Description: The ability of the compounds of the invention to modulate the voltage-gated potassium channel subtypes Kv3.4/Kv3.3/Kv3.2/Kv3.1 may be determined using the following assay. […] Experiments are conducted at r.t. using IonWorks Quattro™ planar array electrophysiology technology (Molecular Devices Corp.) with PatchPlate™ PPC. […] Planar electrode hole resistances (Rp) are determined by applying a 10 mV voltage step across each well. […]
measure: EC50 (µM)

>>> measuredvalue("O=c1[nH]c2cccnc2n1-c1ccc(Oc2cccc(OC(F)(F)F)c2)nc1")
0.398
>>> measuredvalue("Cc1ccc(Oc2ccc(-n3c(=O)[nH]c4cccnc43)cn2)cc1OC(F)(F)F")
1.26
>>> measuredvalue("Cc1ccc(Oc2ncc(-n3c(=O)[nH]c4cccnc43)cn2)cc1OC(F)(F)F")
1.58
>>> measuredvalue("O=c1[nH]c2cccnc2n1-c1cnc(Oc2cccc(OC(F)(F)F)c2)nc1")
1
